Assay: chemical genetic growth profiling, strain panel (AID 1159580);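 further: tested at 20 µM; growth read once vehicle control cultures reached saturation at 30 °C; 1 = growth at the plate median or of vehicle wells; lower values mean less growth of the strain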
Conditions: S. cerevisiae deletion strains, growth OD, locus YDR334W, strain swr1, hits give low values
About 2,000 (36%) of roughly 5,500 compounds were called active. Not shown: some 18% with an inconclusive outcome. The list shows a part of the results.
So basically, if normalized growth comes in under 1 it's rule met, and if it's 1 or more it's rule not met.

**Q:** Please determine if COc1ccc2[nH]cc(CCNC(C)=O)c2c1 is below 1 in terms of normalized growth.
**A:** rule met

**Q:** Please determine if C[C@]12CCC3C(CC[C@H]4C[C@@H](O)CC[C@]34C)C1CCC2=O (stereo partly specified) is below 1 in terms of normalized growth.
**A:** rule not met

**Q:** Please determine if CN1CCN(CCCN2c3ccccc3Sc3ccc(Cl)cc32)CC1 is below 1 in terms of normalized growth.
**A:** rule met

**Q:** Please determine if Cc1cccc(N(C)C(=S)Oc2ccc3ccccc3c2)c1 is below 1 in terms of normalized growth.
**A:** rule not met

**Q:** Please determine if O=C1c2ccccc2-c2cccc3cccc1c23 is below 1 in terms of normalized growth.
**A:** rule met

**Q:** Please determine if CC(C)=CCC1=C(O)c2ccccc2C(=O)C1=O is below 1 in terms of normalized growth.
**A:** rule met

###

Could you please report measured normalized growth for the items listed next?
Assay: chemical genetic growth profiling, strain panel (AID 1159580);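 further: tested at 20 µM; growth read once vehicle control cultures reached saturation at 30 °C; 1 = growth at the plate median or of vehicle wells; lower values mean less growth of the strain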
Conditions: S. cerevisiae deletion strains, growth OD, locus YNL271C, strain bni1, hits give low values
In all, about 5,500 compounds went through this assay and about 2,000 (36%) were called active. Not shown: some 18% with an inconclusive outcome. This is one part of the list.
# respond with the number and nothing more

Form: molecule = COc1cc2ccc(=O)oc2c(O)c1O ; normalized growth = 1

Form: molecule = CC(C)=CCOc1cc2oc(=O)ccc2cc1O ; normalized growth = 0.97

Form: molecule = COc1cc2ccc(=O)oc2cc1O ; normalized growth = 0.994

Form: molecule = COc1ccc2ccc(=O)oc2c1CC=C(C)C ; normalized growth = 0.907

###

Experiment: chemical genetic growth profiling, strain panel (AID 1159580);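 further: tested at 20 µM; growth read once vehicle control cultures reached saturation at 30 °C; 1 = growth at the plate median or of vehicle wells; lower values mean less growth of the strain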
Settings: S. cerevisiae deletion strains, growth OD, locus YDL134C, strain PPH21, hits give low values
The whole screen tested about 5,500 compounds, of which about 2,000 (36%) were called active. About 18% were inconclusive and are not listed. The list shows a part of the results.
Reported metric: normalized growth
# respond with the number and nothing more

Form: compound = CN1Cc2c(N)cccc2C(c2ccccc2)C1 (stereo unspecified) ; normalized growth = 1.01

Form: compound = O=c1n(CCCN2CCN(c3cccc(Cl)c3)CC2)nc2ccccn12 ; normalized growth = 1

Form: compound = O=[N+]([O-])/N=C1/NCCN1Cc1ccc(Cl)cc1 ; normalized growth = 0.984

Form: compound = COC(=O)c1ccccc1-n1cccc1C(=O)OC ; normalized growth = 0.997

Form: compound = N#C/C(=C\Nc1ccc2c(c1)OCCO2)S(=O)(=O)c1ccc(C(F)(F)F)cn1 ; normalized growth = 1

Form: compound = CC(=O)N[C@@H](CC(=O)O)C(=O)O ; normalized growth = 1.01

Form: compound = CSCCC(NC=O)C(=O)NC(CC(C)C)C(=O)NC(Cc1ccccc1)C(=O)O (stereo unspecified) ; normalized growth = 0.996

Form: compound = Cc1ccc(S(=O)(=O)Oc2cc(=O)n(C)c3ccccc23)cc1 ; normalized growth = 0.945

Form: compound = OCCN1CCN(CCCN2c3ccccc3Sc3ccc(Cl)cc32)CC1 ; normalized growth = 1.02

Form: compound = COC(=O)C[C@H]1C(C)(C)C(OC(C)=O)[C@]2(O)C=C3C4CC(=O)O[C@@H](c5ccoc5)[C@]4(C)CCC3[C@@]1(C)C2=O (stereo partly specified) ; normalized growth = 1.02

Form: compound = Cn1c([N+](=O)[O-])cnc1COC(N)=O ; normalized growth = 1
